Origin of the recorded values: ChEMBL document CHEMBL1121884

Target or system: Serotonin (5-HT) receptor (Rattus norvegicus) (UniProt P35563+P35365+P32305+P31388+Q9JJ16+P28564+P30994+Q62758+P08909+P14842+P30940+P35364+P19327+P28565)
Assay text: Ability to elicit head twitches in rats (a serotonin mimetic response)
Format: functional
Parameters: concentration or dose not given beside the values
The label 1 is reserved for Activity strictly under 3; -1 covers values equal to or above it.

* O=C1CN(c2cnc3ccccc3n2)CCN1 | 1
* CN1CCN(c2nc3ccccc3nc2O)CC1 | 1
* [O-][n+]1cc(N2CCNCC2)nc2ccccc21 | -1
* Oc1nc2ccccc2nc1N1CCNCC1 | 1
* O=C(O)C1CN(c2cnc3ccccc3n2)CCN1 (centres undefined) | 1
* Cl.FC(F)(F)c1ccc2nc(N3CCNCC3)c(Sc3ccccc3)nc2c1 | 1
* Nc1ccc2nc(N3CCNCC3)cnc2c1 | 1
* O=[N+]([O-])c1ccc2nc(N3CCNCC3)cnc2c1 | -1
* c1ccc2nc(N3CCNCC3)cnc2c1 | -1
* Fc1cccc2nc(N3CCNCC3)cnc12 | -1
* Cl.Clc1ccc2nc(N3CCNCC3)cnc2c1 | 1
* Fc1cccc2ncc(N3CCNCC3)nc12 | 1
* Oc1ccc2nc(N3CCNCC3)cnc2c1 | 1

---

Target or system: Serotonin (5-HT) receptor (Rattus norvegicus) (UniProt P35563+P35365+P32305+P31388+Q9JJ16+P28564+P30994+Q62758+P08909+P14842+P30940+P35364+P19327+P28565)
Assay text: Ability to elicit head twitches in rats (a serotonin mimetic response)
Type: functional
Design: concentration or dose not given beside the values
The label satisfied is reserved for Activity strictly under 1; not satisfied covers values equal to or above it.

• Oc1nc2ccccc2nc1N1CCNCC1 = satisfied
• Nc1nc2ccccc2nc1N1CCNCC1 = not satisfied
• CN1CCN(c2nc3ccc(S(N)(=O)=O)cc3nc2Cl)CC1 = not satisfied
• Nc1ccc2nc(N3CCNCC3)cnc2c1 = satisfied
• Cl.FC(F)(F)c1ccc2nc(N3CCNCC3)c(Sc3ccccc3)nc2c1 = satisfied
• Clc1ccc2nc(N3CCNCC3)c(Sc3ccccc3)nc2c1 = satisfied
• O=C(O)C1CN(c2cnc3ccccc3n2)CCN1 (stereo not given) = satisfied
• Cl.Clc1cccc2nc(N3CCNCC3)cnc12 = satisfied
• O=C1CN(c2cnc3ccccc3n2)CCN1 = not satisfied
• CN1CCN(c2nc3ccccc3nc2O)CC1 = not satisfied
• O=[N+]([O-])c1ccc2nc(N3CCNCC3)cnc2c1 = not satisfied

---

Target or system: Serotonin (5-HT) receptor (Rattus norvegicus) (UniProt P35563+P35365+P32305+P31388+Q9JJ16+P28564+P30994+Q62758+P08909+P14842+P30940+P35364+P19327+P28565)
Assay text: Ability to elicit head twitches in rats (a serotonin mimetic response)
Format: functional
Set-up: concentration or dose not given beside the values
Below, each entry is listed alongside its reported Activity.
Measure: Activity

- Oc1ccc2nc(N3CCNCC3)cnc2c1: 1
- Clc1cc2ncc(N3CCNCC3)nc2cc1Cl: 1
- CC(=O)N1CCN(c2cnc3cc(Cl)ccc3n2)CC1: 1
- CN(C)CCn1c(=O)c(N2CCNCC2)nc2ccccc21: 1
